# Test system: Trypanosoma cruzi
# protocol-description: Trypanosoma cruzi phosphomannomutase and mannose-1-phosphate guanylyltransferase assay
# Format: functional
# Parameters: scale not given: direction of the effect not stated beside the values
# particulars: 10 µM
assay-metric: Percent Effect (%)
Give bare numbers, in %.

Some compounds with recorded Percent Effect:
O=C(CCc1ccsc1)NCC1CCN(c2ccccc2)C1 (configuration not stated); -6.51
O=C(NCC1CC1)c1nc(COc2ccc3c(c2)OCO3)no1; -7.07
CC(C)c1nc2c(n1C)CCN(Cc1nc(-c3cccs3)no1)C2; 1.21
CCc1c(C)sc(NC(=O)CN2CCN(CC)CC2)c1C(=O)OC; 2.62

Hi team, please reply with Percent Effect for each item in this list.
1. COCCOc1ccc(NC(=O)C2CCC2)cn1
2. CC(C)Sc1nnc(CCNC(=O)OC(C)(C)C)o1
3. Cc1cccc(CN2CCC3(CCCN(C(=O)c4ccsc4)C3)C2=O)n1 (configuration not stated)
4. Cc1nc(CN2CCCC2c2nc(C(C)C)no2)cs1 (configuration not stated)

1. 0.85
2. -8.45
3. 0.0986
4. 3.79

Hi team, please reply with Percent Effect for each item in this list.
1. CC(O)CN1CCN(C(=O)c2ccc(Cn3cccn3)cc2)CC1 (configuration not stated)
2. COc1ccccc1OCC(=O)NS(=O)(=O)c1ccccc1F
3. Cc1cc(C2CCCN(CCCNS(C)(=O)=O)C2)n[nH]1 (configuration not stated)
4. CC(NCc1ccncc1)c1cc(F)ccc1N1CCN(C)CC1 (configuration not stated)

7.08
4.44
-0.283
6.16

---

# study-system: Arginase-2, mitochondrial (Homo sapiens) (UniProt P78540)
# Sequence (P78540 whole entry): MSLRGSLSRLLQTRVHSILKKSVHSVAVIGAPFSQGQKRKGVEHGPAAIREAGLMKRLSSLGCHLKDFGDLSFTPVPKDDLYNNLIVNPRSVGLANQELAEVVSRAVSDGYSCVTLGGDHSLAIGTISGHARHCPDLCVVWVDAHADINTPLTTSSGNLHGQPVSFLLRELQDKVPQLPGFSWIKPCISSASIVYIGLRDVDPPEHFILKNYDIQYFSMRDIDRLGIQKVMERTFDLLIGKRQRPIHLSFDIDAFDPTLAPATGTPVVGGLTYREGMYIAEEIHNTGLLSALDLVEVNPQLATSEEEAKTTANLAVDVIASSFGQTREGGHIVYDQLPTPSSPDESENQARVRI
# protocol-description: in vitro enzyme assay to detect the production of urea directly proportional to the activity of Arginase II; note: in the data most compounds retested in dose-response had high values
# Type: functional
# Design: scale not given: direction of the effect not stated beside the values
# particulars: 33.3 µM
assay-metric: Percent Effect (%)
Give bare numbers, in %.

Some compounds with recorded Percent Effect:
Fc1cccc(N2CCCC3(C2)CN(c2ncccn2)CCO3)c1 (stereo unspecified); 3.23
CN(Cc1ccsc1)C(=O)c1cccc(S(=O)(=O)NC(C)(C)C)c1; -3.56
COCc1ncn2c1CN(C(=O)C1CC=CC1)CC2; -1.74
Cc1cc(C(=O)NCc2ccnc(N(C)C)c2)c(C)o1; -1.42

Hi team, please reply with Percent Effect for each item in this list.
1. O=C(c1ccc[nH]1)N1C[C@H]2CN(Cc3cccc(F)c3)C(=O)[C@H]2C1
2. O=C(Cc1c[nH]c2ccccc12)N1CCN(C(=O)c2ccoc2)CC1

1. 6.05
2. 14.2

---

Provide the reported Percent Effect of each item.
# study-system: Sialic acid-binding Ig-like lectin 9 (Homo sapiens)
# protocol-description: Hs-Siglec9 ALPHAscreen SOP 20170721
# Set-up: scale not given: direction of the effect not stated beside the values
# particulars: 10 µM
One number for each entry, in %.

Some compounds with recorded Percent Effect:
CCCNC(=O)C1CCN(Cc2csc(C(C)(C)C)n2)CC1; -1.57
Cc1ccc(CN2CCc3ncnc(C4CCOC4)c3CC2)s1 (centres undefined); 6.88
Cc1cc(N2CCN(CCO)CC2)nc(-c2ccncc2)n1; -2.69
CCS(=O)(=O)N1CC[C@]2(C[C@@H](OCC3CC3)CO2)C1; 27.4
CCc1cnc(N2C[C@H]3C[C@H](C(=O)N(C)C)[C@@H](C2)O3)nc1; 8.45
Cc1cnn(CCNCc2ccc(OCc3csc(C)n3)cc2)c1; 8.64

Hi team, please reply with Percent Effect for each item in this list.
1. Cn1ccc2c(C(=O)N3CCC(C(N)=O)CC3)cccc21
2. COc1ccc(NC(=O)NCC(O)c2ccc(F)cc2F)c(OC)c1 (centres undefined)
3. COc1ccccc1CN1CC[C@]2(C[C@H](OC)CO2)C1
4. CC(C(=O)NCc1cccc(N2CC=CC2)c1)n1cccn1 (centres undefined)
5. Cn1cc(CN2CCc3nc(-c4ccccn4)nc(O)c3C2)cn1

1. -1.54
2. -3.56
3. 4.02
4. 1.65
5. 8.08

Values compiled from ChEMBL document CHEMBL3988442.
